Data origin, for the record: ChEMBL document CHEMBL1155917

experiment: Cytotoxicity against HPDE 6c7 cells after 72 hrs by MTT assay; format: ADME, cell-based; settings: Homo sapiens, HPDE6c7, 72 h
Provide the reported pIC50 of each item.
Numbers only, as −log10 of the molar value.

Some compounds with recorded pIC50:
# structure notation, pIC50
measured = [
    ("Nc1ccc(-c2cc(C(=O)NCCCCCCC(=O)NO)no2)cc1", 6.40),
    ("CC(C)(C)OC(=O)Nc1ccc(-c2cc(C(=O)NCCCCCCC(=O)NO)no2)cc1", 6.30),
    ("Nc1cccc(-c2cc(C(=O)NCCCCCCC(=O)NO)no2)c1", 6.70),
]

Please examine the following record next.
pIC50 lookup needed for `CC(C)(C)OC(=O)Nc1cccc(-c2cc(C(=O)NCCCCCCC(=O)NO)no2)c1` , thanks.
5.82
